# System: LK-2 (Squamous Cell Lung Carcinoma);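 also: after 72 h of two-drug dosing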
# measurement-description: Bliss excess, mean over the matrix (fraction); higher = more synergy
// label = Condition met if Bliss excess is not less than 0.004, otherwise Condition not met

- compound: "NC1(C(=O)N[C@@H](CCO)c2ccc(Cl)cc2)CCN(c2ncnc3[nH]ccc23)CC1 [Capivasertib] + C[C@@H]1COCCN1C2=NC(=NC(=C2)C3(CC3)[S@](=N)(=O)C)C4=C5C=CNC5=NC=C4 [AZD6738] (first compound max 10 µM, 7x7, partner max 10 µM)"
  category: "Condition not met"
- compound: "Cc1c2c(nn1C)CSCc1cc(n(C)n1)CSc1cc(c3ccccc3c1)OCCCc1c(C(=O)O)n(C)c3c-2c(Cl)ccc13 [AZD5991] + Nc1ccn([C@@H]2O[C@H](CO)[C@@H](O)C2(F)F)c(=O)n1 [Gemcitabine] (first compound max 1 µM, 7x7, partner max 0.3 µM)"
  category: "Condition met"
- compound: "C=CCn1c(=O)c2cnc(Nc3ccc(N4CCN(C)CC4)cc3)nc2n1-c1cccc(C(C)(C)O)n1 [AZD1775] + CCc1c2c(nc3ccc(O)cc13)-c1cc3c(c(=O)n1C2)COC(=O)[C@]3(O)CC [SN-38] (first compound max 1 µM, partner max 0.3 µM)"
  category: "Condition met"
- compound: "COc1cc2ncnc(Nc3ccc(F)c(Cl)c3)c2cc1OCCCN1CCOCC1 [Gefitinib] + CC(C)n1c(=O)n(C)c2cnc3cc(F)c(-c4ccc(OCCCN5CCCCC5)nc4)cc3c21 [AZD1390] (first compound max 10 µM, 7x7, partner max 0.3 µM)"
  category: "Condition not met"
- compound: "Cc1c2c(nn1C)CSCc1cc(n(C)n1)CSc1cc(c3ccccc3c1)OCCCc1c(C(=O)O)n(C)c3c-2c(Cl)ccc13 [AZD5991] + C[C@@H](Nc1cc(F)cc(F)c1)c1cc(C(=O)N(C)C)cc2c(=O)cc(N3CCOCC3)oc12 [AZD8186] (first compound max 1 µM, 7x7, partner max 3 µM)"
  category: "Condition met"
- compound: "CCc1c2c(nc3ccc(O)cc13)-c1cc3c(c(=O)n1C2)COC(=O)[C@]3(O)CC [SN-38] + CN(C)CCCOc1ccc(-c2ccc3ncc4c(c3c2)n(C2CCOCC2)c(=O)n4C)cn1 [AZD0156] (first compound max 0.3 µM, 7x7, partner max 1 µM)"
  category: "Condition met"
- compound: "NC1(C(=O)N[C@@H](CCO)c2ccc(Cl)cc2)CCN(c2ncnc3[nH]ccc23)CC1 [Capivasertib] + CC(=O)c1c(C)c2cnc(Nc3ccc(N4CCNCC4)cn3)nc2n(C2CCCC2)c1=O [Palbociclib] (first compound max 10 µM, 7x7, partner max 10 µM)"
  category: "Condition met"
- compound: "COc1nnc2ccc(N3CCC(c4ccc(OCCN5CCN(C)C(=O)[C@H]5C)cc4)CC3)nn12 [AZD5153] + Cn1cnc2c(F)c(Nc3ccc(Br)cc3Cl)c(C(=O)NOCCO)cc21 [Selumetinib] (first compound max 1 µM, 7x7, partner max 10 µM)"
  category: "Condition met"
- compound: "COc1nnc2ccc(N3CCC(c4ccc(OCCN5CCN(C)C(=O)[C@H]5C)cc4)CC3)nn12 [AZD5153] + C[C@@H]1COCCN1C2=NC(=NC(=C2)C3(CC3)[S@](=N)(=O)C)C4=C5C=CNC5=NC=C4 [AZD6738] (first compound max 1 µM, 7x7, partner max 10 µM)"
  category: "Condition met"
- compound: "CN(CCO)CC[C@H](CSc1ccccc1)Nc1ccc(S(=O)(=O)NC(=O)c2ccc(N3CCC([C@@H](O)c4ccccc4-c4ccc(Cl)cc4)CC3)cc2)cc1S(=O)(=O)C(F)(F)F [AZD4320] + Nc1ccn([C@@H]2O[C@H](CO)[C@@H](O)C2(F)F)c(=O)n1 [Gemcitabine] (first compound max 1 µM, 7x7, partner max 0.3 µM)"
  category: "Condition met"
- compound: "Cc1cc2ncnn2cc1Nc1ncc2c(n1)n(C1CCOCC1)c(=O)n2C [AZD7648] + O=C(c1cc(Cc2n[nH]c(=O)c3ccccc23)ccc1F)N1CCN(C(=O)C2CC2)CC1 [Olaparib] (first compound max 10 µM, 7x7, partner max 10 µM)"
  category: "Condition not met"
- compound: "Cc1cc2ncnn2cc1Nc1ncc2c(n1)n(C1CCOCC1)c(=O)n2C [AZD7648] + CN(C)CCCOc1ccc(-c2ccc3ncc4c(c3c2)n(C2CCOCC2)c(=O)n4C)cn1 [AZD0156] (first compound max 10 µM, 7x7, partner max 1 µM)"
  category: "Condition not met"
- compound: "O=C(c1cc(Cc2n[nH]c(=O)c3ccccc23)ccc1F)N1CCN(C(=O)C2CC2)CC1 [Olaparib] + CN(CC[C@H](CSC1=CC=CC=C1)NC2=C(C=C(C=C2)S(=O)(=O)NC(=O)C3=CC=C(C=C3)N4CCC(CC4)[C@H](C5=CC=CC=C5C6=CC=C(C=C6)Cl)O)S(=O)(=O)C(F)(F)F)CCO [AZD4320] (first compound max 10 µM, 7x7, partner max 1 µM)"
  category: "Condition met"
- compound: "Cc1c2c(nn1C)CSCc1cc(n(C)n1)CSc1cc(c3ccccc3c1)OCCCc1c(C(=O)O)n(C)c3c-2c(Cl)ccc13 [AZD5991] + C1CN(CCC1(C(=O)N[C@@H](CCO)C2=CC=C(C=C2)Cl)N)C3=NC=NC4=C3C=CN4 [Capivasertib] (first compound max 1 µM, 7x7, partner max 3 µM)"
  category: "Condition not met"
